Reference source: patent US7494993B2

pIC50: −log10 of the molar value.
Lck (p56^kk, active) (Homo sapiens, UniProt P06239) pIC50 data
Sequence (P06239 whole entry, species assumed): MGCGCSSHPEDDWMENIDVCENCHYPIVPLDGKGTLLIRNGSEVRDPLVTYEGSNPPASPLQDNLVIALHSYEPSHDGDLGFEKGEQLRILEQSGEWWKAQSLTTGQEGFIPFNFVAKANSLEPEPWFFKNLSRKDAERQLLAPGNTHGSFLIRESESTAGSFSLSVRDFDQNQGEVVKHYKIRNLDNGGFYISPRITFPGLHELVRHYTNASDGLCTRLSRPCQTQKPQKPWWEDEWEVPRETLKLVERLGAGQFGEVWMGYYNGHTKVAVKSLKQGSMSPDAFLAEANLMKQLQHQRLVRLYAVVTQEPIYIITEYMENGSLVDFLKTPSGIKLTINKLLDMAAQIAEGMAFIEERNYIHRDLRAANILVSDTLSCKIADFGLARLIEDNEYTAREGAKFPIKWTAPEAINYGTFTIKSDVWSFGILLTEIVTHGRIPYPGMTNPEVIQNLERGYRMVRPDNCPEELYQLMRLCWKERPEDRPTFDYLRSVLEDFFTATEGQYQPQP

CN1C(=O)N(c2cc(NC(=O)c3ccc(-c4ccc[nH]4)cc3)ccc2Cl)Cc2cnc(N)nc21 = 6.82 to 7.30
CN1C(=O)N(c2cc(NC(=O)c3ccc(-c4ccccn4)cc3)ccc2Cl)Cc2cnc(N)nc21 = 6.82 to 7.30

For this compound ( CN1C(=O)N(c2cc(NC(=O)c3ccc(-c4ccccc4)cc3)ccc2Cl)Cc2cnc(N)nc21 ), measured pIC50 is 6.82 to 7.30

----------
Dear all, this message contains pIC50 results, target or system Src (p60^c-src, partially purified) (Homo sapiens, UniProt P12931).
On this scale, pIC50 is minus log10 of a concentration expressed in M (mol/L).

CN1C(=O)N(c2cc(NC(=O)C=Cc3ccccc3)ccc2Cl)Cc2cnc(N)nc21 = 7.39

Attention now turns to another entry.
pIC50 value, target or system Src (p60^c-src, partially purified) (Homo sapiens, UniProt P12931), for CN1C(=O)N(c2cc(NC(=O)c3ccc(N4CCOCC4)cc3)ccc2Cl)Cc2cnc(N)nc21 : 7.13
